- tested.system: PICK1, Q9NRD5
- Sequence (Q9NRD5 17-115): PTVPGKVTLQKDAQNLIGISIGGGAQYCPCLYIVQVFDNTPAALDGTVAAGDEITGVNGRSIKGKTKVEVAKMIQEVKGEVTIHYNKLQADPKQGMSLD
- assay.name: holdup assay
- Design: key: below the threshold = too weak to quantify, mostly under pKd 3.1 to 4
- study.conditions: plain residues with an end cap or a label only (N-terminal biotin on a linker: ahx)
observation.type: pKd

- binder: "GYDWGPATDL [TJP3, O95049]"
  assay.value: "below the threshold"
- binder: "NRKREIFSNF [NHERF2, Q15599]"
  assay.value: "below the threshold"
- binder: "ESLLLGPSNF [SHROOM4, Q9ULL8]"
  assay.value: "below the threshold"
- binder: "HNAFLSVTTV [PDZRN4, Q6ZMN7]"
  assay.value: "below the threshold"
- binder: "RRRKRKRTYL [HPV49-L2, P36762]"
  assay.value: 3.47
- binder: "SDSSGQEYSL [KCTD3, Q9Y597]"
  assay.value: "below the threshold"
- binder: "PSASCAVTAA [PDLIM4, P50479;P50479-2]"
  assay.value: "below the threshold"
- binder: "TVICWPGSLV [LNX2, Q8N448]"
  assay.value: 3.75
- binder: "RAVEEEESRF [PSCDBP, O60759]"
  assay.value: "below the threshold"
- binder: "LSDPSVSTVV [GRIN1, Q05586;Q05586-2]"
  assay.value: "below the threshold"

Origin of values: paper PMC9482650
